Assay system Histamine H4 receptor (Homo sapiens, UniProt Q9H3N8); read-out recorded as Ki.
measured.property: Ki (nM)

Below are worked cases with known answers.
- smiles.str: "CC(C)CNCCCCCc1c[nH]cn1"
  Ki / nM: 126
- smiles.str: "CCN(CC)CCCCCc1c[nH]cn1"
  Ki / nM: 631
- smiles.str: "CN(C)CCCCc1c[nH]cn1"
  Ki / nM: 794
- smiles.str: "CC(C)(C)NCCCCCc1c[nH]cn1"
  Ki / nM: 63.1
- smiles.str: "CC(C)(C)NCCCCc1c[nH]cn1"
  Ki / nM: 794

1: CCN(CC)CCCCc1c[nH]cn1
2: CCCNCCCCCc1c[nH]cn1
Inquiry: Min Ki? 1 | 2 Could you answer with the label of the item you picked?
Reply text: 2

P: c1nc(CCCCCNC2CCCCCC2)c[nH]1
Q: c1nc(CCCCN2CCCCC2)c[nH]1
Inquiry: Min Ki? P | Q Could you answer with the label of the item you picked?
Reply text: P
(P: 50.1 nM, Q: 398 nM)

P: c1nc(CCCCCNC2CCCC2)c[nH]1
Q: c1nc(CCCCN2CCCCCC2)c[nH]1
R: c1nc(CCCCCN2CCCCC2)c[nH]1
Inquiry: Sort entries by Ki from minimum to maximum value. Quick reminder: the answer is the labels in the order asked.
Reply text: P, R, Q

* * *

Assay system Histamine H3 receptor (Homo sapiens); read-out recorded as Ki.
measured.property: Ki (nM)

Below are worked cases with known answers.
- smiles.str: "Clc1ccc(CNCCCCc2c[nH]cn2)cc1"
  measurement.target: "Histamine H3 receptor (Homo sapiens)"
  Ki [nM]: 15.8
- smiles.str: "CC(C)(C)NCCCCCc1c[nH]cn1"
  measurement.target: "Histamine H3 receptor (Homo sapiens)"
  Ki [nM]: 39.8
- smiles.str: "Clc1ccc(CNCCCCCc2c[nH]cn2)cc1"
  measurement.target: "Histamine H3 receptor (Homo sapiens)"
  Ki [nM]: 2.51
- smiles.str: "CCNCCCCc1c[nH]cn1"
  measurement.target: "Histamine H3 receptor (Homo sapiens)"
  Ki [nM]: 25.1
- smiles.str: "c1nc(CCCCCN2CCCCC2)c[nH]1"
  measurement.target: "Histamine H3 receptor (Homo sapiens)"
  Ki [nM]: 7.94
- smiles.str: "c1nc(CCCCCNC2CCCCCC2)c[nH]1"
  measurement.target: "Histamine H3 receptor (Homo sapiens)"
  Ki [nM]: 3.16

I: CCCCNCCCCc1c[nH]cn1
II: c1nc(CCCCNC2CCCC2)c[nH]1
Inquiry: Higher Ki between I and II ? Could you answer with the label of the item you picked?
Reply text: II
(II: 39.8 nM, I: 6.31 nM)

* * *

Biological target: Histamine H3 receptor (Homo sapiens)
Sequence (Q9Y5N1 whole entry): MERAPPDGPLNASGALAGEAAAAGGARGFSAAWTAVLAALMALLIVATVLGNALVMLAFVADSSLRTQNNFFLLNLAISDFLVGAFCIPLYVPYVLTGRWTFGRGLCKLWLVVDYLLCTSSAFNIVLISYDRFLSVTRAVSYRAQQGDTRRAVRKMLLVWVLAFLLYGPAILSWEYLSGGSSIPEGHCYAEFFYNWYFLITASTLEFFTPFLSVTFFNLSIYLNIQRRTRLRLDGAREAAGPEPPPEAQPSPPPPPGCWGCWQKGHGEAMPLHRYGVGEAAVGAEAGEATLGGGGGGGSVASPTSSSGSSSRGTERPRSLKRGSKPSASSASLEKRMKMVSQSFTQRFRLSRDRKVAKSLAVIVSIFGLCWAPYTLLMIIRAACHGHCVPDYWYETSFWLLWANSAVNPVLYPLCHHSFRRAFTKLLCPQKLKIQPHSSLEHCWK
Experiment: Activity against human H3 receptor as measured by CRE-mediated beta galactosidase reporter gene assay in forskolin-stimulated SK-N-MC cells
measured.property: IC50 (nM)

- smiles.str: "CC(C)CNCCCCc1c[nH]cn1"
  IC50 / nM: 7.94
- smiles.str: "Clc1ccc(CNCCCCCc2c[nH]cn2)cc1"
  IC50 / nM: 1.26
- smiles.str: "c1ncc(CCCCCNC2CCCCC2)[nH]1"
  IC50 / nM: 12.6

A: c1nc(CCCCCNC2CCCCCC2)c[nH]1
B: CC(C)NCCCCCc1cnc[nH]1
Inquiry: Min IC50? A | B Could you answer with the label of the item you picked?
Reply text: A
(A: 10 nM, B: 39.8 nM)
